Kindly supply the reported pIC50 values for the records listed here.
Test System: UniProtKB Q86SK9
Sequence (Q86SK9 whole entry): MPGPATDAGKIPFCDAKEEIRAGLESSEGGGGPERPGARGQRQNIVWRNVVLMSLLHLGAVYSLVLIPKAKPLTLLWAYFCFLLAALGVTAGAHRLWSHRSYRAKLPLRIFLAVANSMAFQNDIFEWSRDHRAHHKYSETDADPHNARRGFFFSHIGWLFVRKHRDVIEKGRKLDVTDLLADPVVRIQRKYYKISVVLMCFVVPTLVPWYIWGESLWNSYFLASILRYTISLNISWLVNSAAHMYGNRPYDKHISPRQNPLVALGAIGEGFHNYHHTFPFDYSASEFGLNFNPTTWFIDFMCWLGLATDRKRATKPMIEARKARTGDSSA
Assay Remarks: Yeast growth assay, strain expressing human SCD5 as the sole desaturase (reduced growth as surrogate for SCD inhibition)
Particulars: yeast with OLE1 deleted expressing human SCD5 from a plasmid; growth read as OD600 after 40 h at 30° C.; top drug concentration 33.3 μM
pIC50: −log10 of the molar value.

Dear colleague, please send me the reported pIC50 for NC(=O)c1cc(C(=O)Nc2cnn(Cc3ccccc3)c2)no1 when you can. < 4.35

Read the entry O=C(Nc1cn(Cc2ccccc2)nc1C(F)(F)F)c1cc(-c2ccccc2)on1 and write its reported pIC50. < 4.35

Query pIC50 for O=C(Nc1cnn(Cc2cccnc2C(F)(F)F)c1)c1cc(-c2ccccc2F)on1 < 4.35

Answer with the recorded pIC50 for the compound listed here: COc1ccc(-c2cc(C(=O)N3CC(c4cccc(F)c4)C3)no2)cc1OC 5.81

In one line, give reported pIC50 of the entry Cc1ccncc1Cn1cc(NC(=O)c2cc(-c3ccccc3F)on2)cn1 . < 4.35

* * *

Test System: human SCD1 (Homo sapiens (Human))
Sequence (O00767 whole entry): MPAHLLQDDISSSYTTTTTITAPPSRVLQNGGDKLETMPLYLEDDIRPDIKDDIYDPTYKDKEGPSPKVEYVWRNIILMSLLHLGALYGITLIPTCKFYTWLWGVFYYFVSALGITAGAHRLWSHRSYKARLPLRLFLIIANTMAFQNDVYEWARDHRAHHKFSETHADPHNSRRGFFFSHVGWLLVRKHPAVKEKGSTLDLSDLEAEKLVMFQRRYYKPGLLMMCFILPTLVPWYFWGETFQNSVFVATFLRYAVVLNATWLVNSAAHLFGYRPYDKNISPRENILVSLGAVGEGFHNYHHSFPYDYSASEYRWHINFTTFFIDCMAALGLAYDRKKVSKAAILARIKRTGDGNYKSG
Assay Remarks: Yeast growth assay, strain expressing human SCD1 as the sole desaturase (reduced growth as surrogate for SCD inhibition)
Particulars: yeast with OLE1 deleted expressing human SCD1 from a plasmid; growth read as OD600 after 40 h at 30° C.; top drug concentration 33.3 μM
Experimental: Strains expressing SCD1 or SCD5 as the sole desaturase, the human SCD1 and SCD5 genes were used to evaluate inhibition of SCD1/SCD5 using reduced growth as a surrogate for SCD inhibition. […] After yeast delivery, assay plates were incubated under humidified conditions at 30° C. for 40 h. Yeast growth was monitored by reading the OD600 of each well using a microplate reader (Perkin Elmer EnVision™).
Property Label: IC50

Tell us which IC50 value is on record for CC(C)c1cc(C(=O)Nc2cc3ccccn3n2)no1 [Compound 176] > 45 µM

Please report IC50 for the following compound: O=C(c1cc(-c2ccccc2)on1)N1CCC(c2ccccc2C(F)(F)F)CC1 [Compound 289] > 45 µM

Read off the recorded IC50 for O=C(c1cc(-c2ccc3c(c2)OCO3)on1)N1CC(O)C[C@H]1c1ccccc1 (some centres unmarked) [Compound 414] 30 µM

Hello, please tell me recorded IC50 for this one: O=C(c1ccccc1)N1CCN(C(=O)c2cc(-c3ccc4c(c3)OCO4)on2)CC1 [Compound 281] > 45 µM

Given the compound CCOC(=O)c1cc(-c2cc(C(=O)Nc3cnn(Cc4cccc(F)c4)c3)no2)on1 [Compound 155] , write its reported IC50. > 45 µM

* * *

Kindly supply the reported pIC50 values for the records listed here.
Test System: UniProt O00767
Assay Remarks: Yeast growth assay, strain expressing human SCD1 as the sole desaturase (reduced growth as surrogate for SCD inhibition)
Particulars: yeast with OLE1 deleted expressing human SCD1 from a plasmid; growth read as OD600 after 40 h at 30° C.; top drug concentration 33.3 μM
pIC50: −log10 of the molar value.

// fetch pIC50 given entry CC(C)c1cc(C(=O)Nc2cnn(Cc3cnccc3C(F)(F)F)c2)no1 [Compound 161] 4.60

# return recorded pIC50 for input O=C(Nc1cnn(CC2CC2)c1)c1cc(-c2ccccc2)on1 [Compound 41] < 4.35

Supply reported pIC50 belonging to this molecule: CS(=O)(=O)CCC(c1ccccc1)n1cc(NC(=O)c2cc(-c3ccccc3)on2)cn1 (stereo not drawn) [Compound 75] < 4.35

Give pIC50 for the following molecule: Cc1nn(C)c2cc(-c3cc(C(=O)N4COCC4c4ccccc4)no3)ccc12 (stereo not drawn) [Compound 419] < 4.35

Quote pIC50 reported for O=C(Nc1cnn(Cc2cccc(F)c2)c1)c1cc(-c2ccccc2)on1 [Compound 53] please. 7.15

Provide only the value of recorded pIC50 for CCOc1ccc(-c2cc(C(=O)N3CCC[C@H]3c3ccccc3)no2)cc1F [Compound 443] < 4.35

Give pIC50 for CC(C)(C)c1cc(C(=O)Nc2cnn(Cc3ccccc3)c2)no1 [Compound 118] 6.82

Please indicate pIC50 recorded for O=C(Nc1cnn(Cc2cccc(F)c2)c1)c1cc(-c2ccno2)on1 [Compound 168] < 4.35

Determine its reported pIC50: COc1ccccc1-c1cc(C(=O)Nc2cnn(Cc3ccccc3)c2)no1 [Compound 136] < 4.35
